Answer each item with its documented FC50.
# target of assay: Epidermal growth factor receptor (Homo sapiens)
# test details: Inhibition of EFGR tyrosine kinase from A431 cells
# Assay type: cell-based
# run conditions: A-431

Query string: Return reported FC50. Input compound: `CN(C)CCCn1c(SSc2c(C(=O)Nc3ccccc3)c3ccccc3n2CCCN(C)C)c(C(=O)Nc2ccccc2)c2ccccc21`
Result string: 26 µM

Query string: Return reported FC50. Input compound: CN1C(=S)C(C(=O)c2ccco2)c2ccccc21 (stereo not drawn)
Result string: > 100 µM

Query string: Return reported FC50. Input compound: CN1C(=S)C(C(=O)c2ccc(C(=O)O)cc2)c2ccccc21 (stereo not drawn)
Result string: 8.7 µM

Query string: Return reported FC50. Input compound: CN1C(=S)C(C(=O)Nc2ccccc2)c2ccccc21 (stereo not drawn)
Result string: 1 µM

Query string: Return reported FC50. Input compound: COC(=O)c1ccc(C(=O)C2C(=S)N(C)c3ccccc32)cc1 (stereo not drawn)
Result string: > 100 µM

Query string: Return reported FC50. Input compound: CC(=O)C1C(=S)N(C)c2ccccc21 (stereo not drawn)
Result string: > 100 µM

Query string: Return reported FC50. Input compound: CC1C(=S)N(C)c2ccccc21 (stereo not drawn)
Result string: > 100 µM

Query string: Return reported FC50. Input compound: CN1C(=S)C(C(=O)c2ccccc2)c2ccccc21 (stereo not drawn)
Result string: > 100 µM

====

# test details: Inhibitory concentration of the against pp60v-src tyrosine kinase obtained from v-src baculovirus-infected insect cells
measurement name: pIC50
pIC50 field: float, defined as -log10 of concentration (mol/L).

Query string: Return reported pIC50. Input molecule: `Cn1c(SSc2c(C(=O)Nc3ccccc3)c3cc(C(F)(F)F)ccc3n2C)c(C(=O)Nc2ccccc2)c2cc(C(F)(F)F)ccc21`
Result string: 5.24

Query string: Return reported pIC50. Input molecule: `Cn1c(SSc2c(C(=O)Nc3ccccc3)c3ccccc3n2C)c(C(=O)Nc2ccccc2)c2ccccc21`
Result string: 5.49

====

# target of assay: Epidermal growth factor receptor (Homo sapiens, UniProt P00533)
# Sequence (P00533 whole entry): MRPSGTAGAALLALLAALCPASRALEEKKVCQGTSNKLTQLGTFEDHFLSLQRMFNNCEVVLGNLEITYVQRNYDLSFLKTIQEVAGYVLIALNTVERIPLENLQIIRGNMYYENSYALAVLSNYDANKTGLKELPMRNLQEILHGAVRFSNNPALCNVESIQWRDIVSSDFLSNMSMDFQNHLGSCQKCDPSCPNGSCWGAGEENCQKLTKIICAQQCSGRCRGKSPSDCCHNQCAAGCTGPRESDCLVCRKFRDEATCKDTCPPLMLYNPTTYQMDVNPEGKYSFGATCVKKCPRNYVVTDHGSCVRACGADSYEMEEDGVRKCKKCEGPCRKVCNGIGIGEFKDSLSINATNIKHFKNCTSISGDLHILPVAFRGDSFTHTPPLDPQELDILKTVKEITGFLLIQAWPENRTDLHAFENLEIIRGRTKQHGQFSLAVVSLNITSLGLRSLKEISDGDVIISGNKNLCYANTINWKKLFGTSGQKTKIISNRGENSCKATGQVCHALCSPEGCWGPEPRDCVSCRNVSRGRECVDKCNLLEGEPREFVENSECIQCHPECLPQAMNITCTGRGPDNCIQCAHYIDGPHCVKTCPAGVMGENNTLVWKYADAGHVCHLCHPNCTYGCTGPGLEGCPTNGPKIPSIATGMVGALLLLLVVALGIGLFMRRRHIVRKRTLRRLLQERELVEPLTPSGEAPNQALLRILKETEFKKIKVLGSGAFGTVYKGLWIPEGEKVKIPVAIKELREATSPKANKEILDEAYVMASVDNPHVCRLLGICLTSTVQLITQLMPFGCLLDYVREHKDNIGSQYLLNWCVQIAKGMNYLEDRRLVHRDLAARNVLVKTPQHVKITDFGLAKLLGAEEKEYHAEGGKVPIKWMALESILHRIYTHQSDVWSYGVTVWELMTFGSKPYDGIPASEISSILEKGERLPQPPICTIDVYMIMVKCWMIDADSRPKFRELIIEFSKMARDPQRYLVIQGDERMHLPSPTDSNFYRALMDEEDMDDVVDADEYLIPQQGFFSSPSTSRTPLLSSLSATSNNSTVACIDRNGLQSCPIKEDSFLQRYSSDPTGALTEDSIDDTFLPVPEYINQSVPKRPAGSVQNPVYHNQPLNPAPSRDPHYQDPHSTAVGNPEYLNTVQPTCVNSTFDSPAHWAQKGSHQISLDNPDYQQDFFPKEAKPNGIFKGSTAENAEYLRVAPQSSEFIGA
# test details: Inhibitory concentration compound against EFGR tyrosine kinase obtained from plasma membrane vesicles from cultured A431 cells
Answer each item with its documented IC50.
Please give a number only; it is taken to be in µM.

Query string: Return reported IC50. Input compound: `CN(C)CCNC(=O)c1c(SSc2c(C(=O)NCCN(C)C)c3ccccc3n2C)n(C)c2ccccc12`
Result string: 17.5

Query string: Return reported IC50. Input compound: `O=C(NCc1ccccc1)c1c(SSc2[nH]c3ccccc3c2C(=O)NCc2ccccc2)[nH]c2ccccc12`
Result string: 15

Query string: Return reported IC50. Input compound: `CNC(=O)c1c(SSc2c(C(=O)NC)c3ccccc3n2C)n(C)c2ccccc12`
Result string: 1.8

Query string: Return reported IC50. Input compound: `c1ccc(-c2c(SSc3[nH]c4ccccc4c3-c3ccccc3)[nH]c3ccccc23)cc1`
Result string: 100

Query string: Return reported IC50. Input compound: NC(Cc1c(SSc2[nH]c3ccccc3c2CC(N)C(=O)NCc2ccccc2)[nH]c2ccccc12)C(=O)NCc1ccccc1 (configuration not stated)
Result string: 3.3

Query string: Return reported IC50. Input compound: `Cn1c(SSc2c(C(=O)Nc3ccccn3)c3ccccc3n2C)c(C(=O)Nc2ccccn2)c2ccccc21`
Result string: 47

Query string: Return reported IC50. Input compound: `CNC(=O)c1c(SSc2[nH]c3ccccc3c2C(=O)NC)[nH]c2ccccc12`
Result string: 6.1

Query string: Return reported IC50. Input compound: `Cc1ccc(S(=O)(=O)c2c(SSc3[nH]c4ccccc4c3S(=O)(=O)c3ccc(C)cc3)[nH]c3ccccc23)cc1`
Result string: 28.7

Query string: Return reported IC50. Input compound: `Cn1c(SSc2c(C(=O)NCc3ccccc3)c3ccccc3n2C)c(C(=O)NCc2ccccc2)c2ccccc21`
Result string: 1.7

Query string: Return reported IC50. Input compound: `Cn1c(SSc2c(C(=O)c3ccco3)c3ccccc3n2C)c(C(=O)c2ccco2)c2ccccc21`
Result string: 7.7

Query string: Return reported IC50. Input compound: `Cn1c(SSc2c(C(=O)Nc3ccccc3)c3ccccc3n2C)c(C(=O)Nc2ccccc2)c2ccccc21`
Result string: 10.9

Query string: Return reported IC50. Input compound: `O=C(Nc1ccccc1)c1c(SSc2[nH]c3ccccc3c2C(=O)Nc2ccccc2)[nH]c2ccccc12`
Result string: 100

====

# test details: Inhibition of v-src from baculovirus culture
measurement name: IC50 (µM)
Please give a number only; it is taken to be in µM.

Query string: Return reported IC50. Input compound: CN1C(=S)C(C(=O)Nc2ccccc2)c2ccccc21 (stereo not given)
Result string: 10

Query string: Return reported IC50. Input compound: CN1C(=S)C(C(=O)c2ccco2)c2ccccc21 (stereo not given)
Result string: 10.8

Query string: Return reported IC50. Input compound: `CN(C)CCCn1c(SSc2c(C(=O)Nc3ccccc3)c3ccccc3n2CCCN(C)C)c(C(=O)Nc2ccccc2)c2ccccc21`
Result string: 5.6
